- Tested on: adenosine deaminase
- METHOD: Stability of the compound assessed as compound remaining at 10 uM after 60 mins in presence of bovine adenosine deaminase
- Type: ADME
- CONDITIONS USED: cattle, read-out: Stability
ASSAY METRIC: remaining at 1 h, 10 µM (%)

Answered examples (2):
C[C@@]1(O)[C@H](O)[C@@H](CO)O[C@H]1n1cnc2c(N)ncnc21: 94
C[C@@]1(O)[C@H](O)[C@@H](CO)O[C@H]1n1ccc2c(N)ncnc21: 98

I. C[C@@]1(O)[C@H](O)[C@@H](CO)O[C@H]1c1cnc2c(N)ncnn12
II. C[C@@]1(O)[C@H](O)[C@@H](CO)O[C@H]1c1ccc2c(N)ncnn12
Qu. Could you please tell me which of these two has the higher remaining at 1 h, 10 µM: I or II ? Field: selected label. Fill in the label of the entry you choose.
Ans. II

---

- METHOD: Cytotoxicity against human HuH7 cells after 24 hrs by MTS assay
- Format: cell-based, Huh-7
ASSAY METRIC: CC50 at 24 h

C[C@@]1(O)[C@H](O)[C@@H](CO)O[C@H]1c1c[nH]c(=O)[nH]c1=O: > 89 µM
C[C@@]1(O)[C@H](O)[C@@H](CO)O[C@H]1c1cnc2c(=O)[nH]c(N)nn12: > 89 µM
C[C@@]1(O)[C@H](O)[C@@H](CO)O[C@H]1n1ccc(=O)[nH]c1=O: > 89 µM
C[C@@]1(O)[C@H](O)[C@@H](CO)O[C@H]1c1cnc2c(N)ncnn12: > 89 µM

Shift focus to the following entry.
Qu. Please look up its CC50 at 24 h: C[C@@]1(O)[C@H](O)[C@@H](CO)O[C@H]1n1ccc2c(N)ncnc21
Ans. > 89 µM

---

- METHOD: Plasma clearance in rat
- Type: ADME, organism-based
ASSAY METRIC: clearance

Qu. Please look up its clearance: C[C@@]1(O)[C@H](O)[C@@H](CO)O[C@H]1n1cnc2c(N)ncnc21
Ans. > 200 mL/min/kg

---

- METHOD: Oral bioavailability in Sprague-Dawley rat
- Format: ADME, organism-based
- CONDITIONS USED: in vivo
ASSAY METRIC: bioavailability (%)
Answer in %, number only, no unit symbol.

Qu. Please look up its bioavailability: C[C@@]1(O)[C@H](O)[C@@H](CO)O[C@H]1c1ccc2c(N)ncnn12
Ans. 50

---

- METHOD: Oral bioavailability in beagle dog at 1 mg/kg
- Type: ADME, organism-based, Canis lupus familiaris
- CONDITIONS USED: in vivo
ASSAY METRIC: bioavailability (%)
Answer in %, number only, no unit symbol.

Qu. Please look up its bioavailability: C[C@@]1(O)[C@H](O)[C@@H](CO)O[C@H]1c1ccc2c(N)ncnn12
Ans. 70

---

- METHOD: Volume of distribution in beagle dog at 0.5 mg/kg, iv after 24 hrs by LC-MS/MS analysis
- Format: ADME, organism-based, Canis lupus familiaris
- Parameters: dose 0.5 mg/kg, route intravenous
- CONDITIONS USED: in vivo
ASSAY METRIC: Vd (L/kg)
Answer in L/kg, number only, no unit symbol.

Qu. Please look up its Vd: C[C@@]1(O)[C@H](O)[C@@H](CO)O[C@H]1c1ccc2c(N)ncnn12
Ans. 1.66

---

- METHOD: Cytotoxicity against human HuH7 cells after 24 hrs by MTS assay
- Type: cell-based, Huh-7
Each entry below lists one item and its recorded CC50 at 24 h value.
Answer in µM, number only, no unit symbol.

C[C@@]1(O)[C@H](O)[C@@H](CO)O[C@H]1n1cnc2c(N)ncnc21: 66

Shift focus to the following entry.
Qu. Please look up its CC50 at 24 h: C[C@@]1(O)[C@H](O)[C@@H](CO)O[C@H]1c1ccc2c(N)ncnn12
Ans. 85

---

- METHOD: Cytotoxicity against human HuH7 cells after 24 hrs by MTS assay
- Type: cell-based, Huh-7
ASSAY METRIC: CC50 at 24 h

Answered examples (2):
C[C@@]1(O)[C@H](O)[C@@H](CO)O[C@H]1n1cnc2c(=O)[nH]c(N)nc21 [2'-B-METHYL-GUANOSINE]: > 89 µM
C[C@@]1(O)[C@H](O)[C@@H](CO)O[C@H]1n1ccc(N)nc1=O: > 89 µM

Shift focus to the following entry.
Qu. Please look up its CC50 at 24 h: C[C@@]1(O)[C@H](O)[C@@H](CO)O[C@H]1c1c[nH]c(N)nc1=O
Ans. > 89 µM

src = ChEMBL document CHEMBL2029282
